# study.target: Recombinant Protein Encoded by the ORF of Zeatin O-xylosyltranferase (Phaseolus vulgaris)
# Construct: the ORF of the gene was excised from the pGem-T vector (Promega) using the restriction enzymes Not1 and Sal1; made in house; host or cells: E. coli BL21(DE3) pLysS
# Sequence (P56725 whole entry): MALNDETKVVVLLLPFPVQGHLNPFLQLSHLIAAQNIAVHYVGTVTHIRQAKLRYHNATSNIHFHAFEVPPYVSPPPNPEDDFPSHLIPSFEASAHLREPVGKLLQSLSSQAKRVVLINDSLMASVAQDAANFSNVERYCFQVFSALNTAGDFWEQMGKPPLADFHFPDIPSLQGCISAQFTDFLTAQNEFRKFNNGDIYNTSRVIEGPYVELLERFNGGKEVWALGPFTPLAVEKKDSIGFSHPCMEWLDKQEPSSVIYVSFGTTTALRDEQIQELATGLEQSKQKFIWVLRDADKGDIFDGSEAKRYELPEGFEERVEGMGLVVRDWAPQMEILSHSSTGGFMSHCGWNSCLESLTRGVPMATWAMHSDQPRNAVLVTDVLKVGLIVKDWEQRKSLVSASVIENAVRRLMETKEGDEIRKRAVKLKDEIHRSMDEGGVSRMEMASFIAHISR
# assay.text: Cytokinin conversion assay with recombinant protein encoded by the ORF of zeatin O-xylosyltransferase (radio-labeled cytokinin + glycosyl donor, HPLC)
# Type: biochemical, Phaseolous vulgaris
# run.conditions: glycosyl donor UDPX; 125 μl protein from culture supernatant, 4 hrs
# Protocol: Isolation of recombinant zeatin O-xylosyltransferase proteins. Zeatin O-xylosyltransferase protein was purified using the same techniques as described above. […] Assay for cytokinin conversion activity and analysis of reaction products. […] The supernatant was concentrated to 100 μl in vacuo (Speed Vac Concentrator, Savant) and analyzed by HPLC using a reversed phase C18column. […]
In this section we review reported Substrate Left CPM values for a set of compounds.
quantity.kind: Substrate Left CPM (CPM)

> print(dat)
                                   compound  unit  obs.value
1  C/C(=C\CNc1ncnc2c1ncn2[C@@H]1O[C@H](CO)[C@@H](O)[C@H]1O)CO   CPM      39238
2  C/C(=C\CNc1ncnc2[nH]cnc12)CO [Z, trans-zeatin]   CPM       7768
3  C/C(=C/CNc1ncnc2nc[nH]c12)CO [cis-Z, Cis-zeatin]   CPM      29460
4  CC(CO)CCNc1ncnc2nc[nH]c12 (stereo not shown) [DHZ, dihydrozeatin]   CPM       9244
